Ref: PubChem BioAssay (NCI)

experimental.protocol: NCI Yeast Anticancer Drug Screen. Data for the CLN2oe strain (AID 163);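 further: 0% = growth of vehicle-only control cultures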
measurement.context: S. cerevisiae CLN2oe strain, at 11.0 µM, hits give high values
Protocol: Growth inhibition of yeast strains with defined genetic alterations is measured as a screen for potential anti-cancer activity. Selected strains with alterations in DNA damage repair or cell cycle control were exposed to compounds and growth inhibition was measured relative to vehicle treated controls. The strain used in this assay is CLN2oe
About 79,000 compounds went through this panel and 15% of them were active in at least one assay; those are over-represented in the sample as a whole.
# growth inhibition values compiled below
measurement.kind: growth inhibition (%)

[[record]]
compound = "CCOC(=O)c1ccc(NC(=O)O/N=C(/Cl)C(C)C)cc1"
unit_text = "%"
value_measured = -5

[[record]]
compound = "CN(C)CCOC1(Cc2ccc(F)cc2)CCC(C(C)(C)C)CC1 (stereo not given)"
unit_text = "%"
value_measured = -5

[[record]]
compound = "Cc1cc(O)c(C(C)C)cc1C1(c2cc(C(C)C)c(O)cc2C)OC(=O)c2ccccc21"
unit_text = "%"
value_measured = -6

[[record]]
compound = "CN(CCN(C)Cc1ccccc1)Cc1ccccc1"
unit_text = "%"
value_measured = 5

[[record]]
compound = "CCOC(=O)[C@H]1Nc2ccc(OC)cc2C2c3ccccc3CC21 (stereo not given in full)"
unit_text = "%"
value_measured = -21

[[record]]
compound = "COc1ccc(C(=O)c2ccccc2C(=O)c2ccccc2OC)cc1"
unit_text = "%"
value_measured = 0

[[record]]
compound = "CC[N+](CC)(CC)c1ccccc1"
unit_text = "%"
value_measured = 8

[[record]]
compound = "CCCCCCN(CCCCCC)CC(O)c1ccnc2ccc(OC)cc12 (stereo not given)"
unit_text = "%"
value_measured = -1

[[record]]
compound = "OCc1ccccc1Cc1ccccc1"
unit_text = "%"
value_measured = -2

[[record]]
compound = "CC(=O)OC1CC2C(C)(C)C(=O)C=C[C@]2(C)C2CCC3(C)C(=CCC3[C@H](CO)C[C@H](O)C(=O)C(C)(C)O)[C@]12C (stereo not given in full)"
unit_text = "%"
value_measured = -7

[[record]]
compound = "CCOC(=O)c1[nH]cc(C)c1-c1cccn1-c1ccc(Cl)cc1[N+](=O)[O-]"
unit_text = "%"
value_measured = -4

[[record]]
compound = "S=c1[nH]c2cc3ccccc3cc2[nH]1"
unit_text = "%"
value_measured = -3

[[record]]
compound = "N#CC(C#N)=NNc1ccc(S(=O)(=O)O)cc1"
unit_text = "%"
value_measured = -11

[[record]]
compound = "CN(C)Cc1cc(N=Nc2ccc(Cl)cc2)ccc1OC(=O)c1ccccc1"
unit_text = "%"
value_measured = 1

[[record]]
compound = "S=C1SCN(C2CCCCC2)CN1C1CCCCC1"
unit_text = "%"
value_measured = -16

[[record]]
compound = "CCc1cc(O)c(Cl)c(C)c1Cl"
unit_text = "%"
value_measured = 1

[[record]]
compound = "O=c1ccc(=O)n(-c2ccccc2)[nH]1"
unit_text = "%"
value_measured = 29

[[record]]
compound = "O=C(CSC(=S)N1CCCCC1)Nc1nc2c(s1)CCCC2"
unit_text = "%"
value_measured = -14

[[record]]
compound = "CN(C)CCNC(=O)c1cccc2c1Oc1c(cccc1[N+](=O)[O-])O2"
unit_text = "%"
value_measured = 20

[[record]]
compound = "O=C1OC(OC/C(Br)=C(\\Br)COC2OC(=O)C(Cl)=C2Cl)C(Cl)=C1Cl (stereo not given)"
unit_text = "%"
value_measured = 2

[[record]]
compound = "O=C(Oc1ccc2c(c1)CN(Cc1ccccc1)CO2)c1ccccc1"
unit_text = "%"
value_measured = -1

[[record]]
compound = "NC(=O)C(=O)NNc1ccccc1"
unit_text = "%"
value_measured = 41

[[record]]
compound = "CS(=O)(=O)SCc1ccc([N+](=O)[O-])cc1"
unit_text = "%"
value_measured = 57

[[record]]
compound = "CCOC1=C/C(=N\\Nc2ccc([N+](=O)[O-])cc2)CCC1"
unit_text = "%"
value_measured = 21

[[record]]
compound = "CCN(CC)CCN(C)CCc1ccc(Br)cc1"
unit_text = "%"
value_measured = 35

